Listing of recorded Alpha 2A intrinsic activity (efficacy) by entry.
- target: alpha2A receptor (Homo sapiens, UniProt P08913)
- Construct: expressed in transfected cells; host or cells: NIH-3T3 cells
- Sequence (P08913 whole entry): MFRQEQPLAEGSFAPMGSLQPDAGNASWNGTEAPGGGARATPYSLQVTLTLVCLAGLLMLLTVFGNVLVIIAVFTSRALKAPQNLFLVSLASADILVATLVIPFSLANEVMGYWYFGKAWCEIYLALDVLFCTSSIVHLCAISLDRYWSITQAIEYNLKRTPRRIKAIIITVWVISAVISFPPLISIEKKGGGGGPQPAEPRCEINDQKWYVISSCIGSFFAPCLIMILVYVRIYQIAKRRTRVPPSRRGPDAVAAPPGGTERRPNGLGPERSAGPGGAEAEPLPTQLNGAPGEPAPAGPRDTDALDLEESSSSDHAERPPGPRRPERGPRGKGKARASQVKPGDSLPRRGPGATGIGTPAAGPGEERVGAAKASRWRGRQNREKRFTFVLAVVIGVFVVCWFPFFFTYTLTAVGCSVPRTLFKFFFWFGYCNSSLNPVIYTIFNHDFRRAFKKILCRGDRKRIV
- procedure_text: Receptor Selection and Amplification Technology (RSAT) assay, alpha2A
- Assay type: cell-based
- reported_conditions: RSAT; ratio of maximal effect to that of standard full agonist brimonidine (UK14304); value in brackets
Respond numerically, and do not add a unit to the figure.

# count of solved cases: 5
{"columns": ["compound", "target", "Alpha 2A intrinsic activity (efficacy)"],
 "data": [
  ["Cc1cccc(C(c2ccncc2)c2c[nH]cn2)c1C (stereo not drawn)", "alpha2A receptor (Homo sapiens, UniProt P08913)", 0.32],
  ["Fc1cccc(C(c2cccnc2)c2c[nH]cn2)c1Cl (stereo not drawn)", "alpha2A receptor (Homo sapiens, UniProt P08913)", 0.32],
  ["Fc1cccc(C(c2ccccn2)c2c[nH]cn2)c1 (stereo not drawn)", "alpha2A receptor (Homo sapiens, UniProt P08913)", 0.14],
  ["Clc1cccc(C(c2ccncc2)c2c[nH]cn2)c1Cl (stereo not drawn)", "alpha2A receptor (Homo sapiens, UniProt P08913)", 0.18],
  ["Fc1c(Cl)cccc1C(c1c[nH]cn1)c1cccs1 (stereo not drawn)", "alpha2A receptor (Homo sapiens, UniProt P08913)", 0.21]
]}

Fill in reported Alpha 2A intrinsic activity (efficacy) for this entry: Cc1c(Cl)cccc1C(c1ccncc1)c1c[nH]cn1 (stereo not drawn) 0.11

Fill in reported Alpha 2A intrinsic activity (efficacy) for this entry: Cc1ccccc1C(c1ccccn1)c1c[nH]cn1 (stereo not drawn) 0.03

Fill in reported Alpha 2A intrinsic activity (efficacy) for this entry: Cc1c(F)cccc1C(c1ccccn1)c1c[nH]cn1 (stereo not drawn) 0.04

Fill in reported Alpha 2A intrinsic activity (efficacy) for this entry: Cc1c(F)cccc1C(c1ccncc1)c1c[nH]cn1 (stereo not drawn) 0.03

Fill in reported Alpha 2A intrinsic activity (efficacy) for this entry: CC(C)c1ccc(C(c2c[nH]cn2)c2cccc(F)c2Cl)s1 (stereo not drawn) 0.06

Fill in reported Alpha 2A intrinsic activity (efficacy) for this entry: Cc1ccccc1C(c1ccncc1)c1c[nH]cn1 (stereo not drawn) 0.06

Fill in reported Alpha 2A intrinsic activity (efficacy) for this entry: Fc1c(Cl)cccc1C(c1ccccn1)c1cnc[nH]1 (stereo not drawn) 0.07

###

- target: alpha2C receptor (Homo sapiens, UniProt P18825)
- Construct: expressed in transfected cells; host or cells: NIH-3T3 cells
- Sequence (P18825 1-462): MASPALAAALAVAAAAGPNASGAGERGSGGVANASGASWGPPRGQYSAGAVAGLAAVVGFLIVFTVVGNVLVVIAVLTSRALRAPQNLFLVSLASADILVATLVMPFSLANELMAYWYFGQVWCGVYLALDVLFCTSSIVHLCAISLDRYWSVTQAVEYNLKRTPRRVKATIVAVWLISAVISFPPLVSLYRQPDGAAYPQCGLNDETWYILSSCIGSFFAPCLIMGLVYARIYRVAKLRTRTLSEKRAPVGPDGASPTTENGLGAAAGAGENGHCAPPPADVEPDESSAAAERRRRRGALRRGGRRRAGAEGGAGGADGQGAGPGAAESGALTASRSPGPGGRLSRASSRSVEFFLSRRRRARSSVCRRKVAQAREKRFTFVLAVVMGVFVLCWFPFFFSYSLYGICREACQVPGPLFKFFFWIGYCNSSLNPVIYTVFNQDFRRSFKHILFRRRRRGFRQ
- procedure_text: Receptor Selection and Amplification Technology (RSAT) assay, alpha2C
- Format: cell-based
- reported_conditions: RSAT, transfected NIH-3T3 cells; value outside brackets; read-out: Alpha 2C EC50 (potency)
pEC50: −log10 of the molar value.
metric: pEC50

# count of solved cases: 10
{"columns": ["compound", "pEC50"],
 "data": [
  ["Fc1ccccc1C(c1ccccn1)c1c[nH]cn1 (stereo not shown)", 5.68],
  ["Clc1cccc(C(c2ccncc2)c2c[nH]cn2)c1Cl (stereo not shown)", 7.01],
  ["Fc1c(C(c2ccncc2)c2c[nH]cn2)cccc1C(F)(F)F (stereo not shown)", "< 5.00"],
  ["c1ccc(C(c2cccnc2)c2c[nH]cn2)cc1 (stereo not shown)", "< 5.00"],
  ["Fc1cccc(C(c2ccncc2)c2c[nH]cn2)c1 (stereo not shown)", "< 5.00"],
  ["Fc1cccc(C(c2ccccn2)c2c[nH]cn2)c1F (stereo not shown)", "< 5.00"],
  ["c1ccc(C(c2ccncc2)c2c[nH]cn2)cc1 (stereo not shown)", "< 5.00"],
  ["Cc1ccccc1C(c1cccnc1)c1c[nH]cn1 (stereo not shown)", "< 5.00"],
  ["Cc1c(F)cccc1C(c1ccccn1)c1c[nH]cn1 (stereo not shown)", 6.36],
  ["Fc1cccc(C(c2cccnc2)c2c[nH]cn2)c1 (stereo not shown)", 5.44]
]}

Fill in reported pEC50 for this entry: c1ccc(C(c2ccccn2)c2c[nH]cn2)cc1 (stereo not shown) < 5.00

Fill in reported pEC50 for this entry: Fc1c(C(c2cccnc2)c2c[nH]cn2)cccc1C(F)(F)F (stereo not shown) 7.49

Fill in reported pEC50 for this entry: Fc1cccc(C(c2ccccn2)c2c[nH]cn2)c1 (stereo not shown) < 5.00

###

Listing of recorded EC50 by entry.
- target: alpha2C receptor (Homo sapiens, UniProt P18825)
- Construct: expressed in transfected cells; host or cells: NIH-3T3 cells
- procedure_text: Receptor Selection and Amplification Technology (RSAT) assay, alpha2C
- Type: cell-based
- reported_conditions: RSAT, transfected NIH-3T3 cells; value outside brackets; read-out: Alpha 2C EC50 (potency)
Numbers only; they are read as nM.

Fill in reported EC50 for this entry: Fc1c(Cl)cccc1C(c1cccnc1)c1cnc[nH]1 (centres unmarked) 64

Fill in reported EC50 for this entry: Cc1cccc(C(c2ccncc2)c2c[nH]cn2)c1C (centres unmarked) 605

Fill in reported EC50 for this entry: Cc1c(Cl)cccc1C(c1ccccn1)c1c[nH]cn1 (centres unmarked) 495

Fill in reported EC50 for this entry: Fc1cccc(C(c2cccnc2)c2c[nH]cn2)c1Cl (centres unmarked) 88

Fill in reported EC50 for this entry: Clc1cccc(C(c2cccnc2)c2c[nH]cn2)c1Cl (centres unmarked) 112

Fill in reported EC50 for this entry: Fc1ccccc1C(c1ccncc1)c1c[nH]cn1 (centres unmarked) 365

Fill in reported EC50 for this entry: Fc1c(Cl)cccc1C(c1ccccn1)c1cnc[nH]1 (centres unmarked) 177

Fill in reported EC50 for this entry: Cc1c(Cl)cccc1C(c1ccncc1)c1c[nH]cn1 (centres unmarked) 83

Fill in reported EC50 for this entry: Cc1ccccc1C(c1ccccn1)c1c[nH]cn1 (centres unmarked) 213

Fill in reported EC50 for this entry: Fc1c(C(c2ccccn2)c2c[nH]cn2)cccc1C(F)(F)F (centres unmarked) 507

Fill in reported EC50 for this entry: Cc1cccc(C(c2ccccn2)c2c[nH]cn2)c1C (centres unmarked) 356

Fill in reported EC50 for this entry: Cc1cccc(C(c2cccnc2)c2c[nH]cn2)c1C (centres unmarked) 14

Fill in reported EC50 for this entry: Fc1c(Cl)cccc1C(c1ccncc1)c1cnc[nH]1 (centres unmarked) 340

Fill in reported EC50 for this entry: Cc1ccccc1C(c1ccncc1)c1c[nH]cn1 (centres unmarked) 265

Fill in reported EC50 for this entry: Fc1cccc(C(c2ccncc2)c2c[nH]cn2)c1F (centres unmarked) 2490

Fill in reported EC50 for this entry: Fc1cccc(C(c2cccnc2)c2c[nH]cn2)c1F (centres unmarked) 656

###

Listing of recorded pEC50 by entry.
- target: alpha2A receptor (Homo sapiens)
- Construct: expressed in transfected cells; host or cells: NIH-3T3 cells
- procedure_text: Receptor Selection and Amplification Technology (RSAT) assay, alpha2A
- Format: cell-based
- Procedure: Receptor Selection and Amplification Technology (RSAT) Assay The RSAT assay measures a receptor-mediated loss of contact inhibition that results in selective proliferation of receptor-containing cells in a mixed population of confluent cells. The increase in cell number is assessed with an appropriate transfected marker gene such as β-galactosidase, the activity of which can be easily measured in a 96-well format. Receptors that activate the G protein, Gq, elicit this response. […]
pEC50: −log10 of the molar value.

{"columns": ["compound", "pEC50"],
 "data": [
  ["Clc1cccc(C(c2ccccn2)c2c[nH]cn2)c1Cl (centres unmarked)", "< 5.00"]
]}

Here's the next entry for you.
Fill in reported pEC50 for this entry: Fc1ccccc1C(c1cccnc1)c1c[nH]cn1 (centres unmarked) < 5.00

###

- target: alpha2B receptor (Homo sapiens, UniProt P18089)
- Construct: expressed in transfected cells; host or cells: NIH-3T3 cells
- Sequence (P18089 whole entry): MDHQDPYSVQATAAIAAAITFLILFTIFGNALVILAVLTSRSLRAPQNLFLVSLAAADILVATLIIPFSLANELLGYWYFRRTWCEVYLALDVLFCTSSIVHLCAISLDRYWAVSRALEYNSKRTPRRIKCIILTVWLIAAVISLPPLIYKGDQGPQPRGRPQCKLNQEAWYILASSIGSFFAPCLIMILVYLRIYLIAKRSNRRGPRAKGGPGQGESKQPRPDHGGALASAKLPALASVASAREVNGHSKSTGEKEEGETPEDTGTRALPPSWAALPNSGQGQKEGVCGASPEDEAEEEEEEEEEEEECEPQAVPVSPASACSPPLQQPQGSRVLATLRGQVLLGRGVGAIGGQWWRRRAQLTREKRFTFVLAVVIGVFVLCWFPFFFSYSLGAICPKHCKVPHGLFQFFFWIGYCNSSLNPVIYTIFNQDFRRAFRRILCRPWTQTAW
- procedure_text: Receptor Selection and Amplification Technology (RSAT) assay, alpha2B
- Format: cell-based
- reported_conditions: RSAT, transfected NIH-3T3 cells; value outside brackets; read-out: Alpha 2B EC50 (potency)
metric: pEC50
Kindly note that pEC50 refers to -log10 of the concentration in mol/L and answer with the value alone.

{"columns": ["compound", "metric", "value_observed"],
 "data": [
  ["Fc1c(C(c2ccccn2)c2c[nH]cn2)cccc1C(F)(F)F (centres unmarked)", "pEC50", 7.41],
  ["Fc1cccc(C(c2cccnc2)c2c[nH]cn2)c1Cl (centres unmarked)", "pEC50", 8.32],
  ["Cc1ccccc1C(c1ccncc1)c1c[nH]cn1 (centres unmarked)", "pEC50", 7.20]
]}

Answer with pEC50 of CC(C)c1ccc(C(c2c[nH]cn2)c2cccc(F)c2Cl)s1 (centres unmarked) measured for alpha2B receptor (Homo sapiens, UniProt P18089). 7.12

meta.source: patent US20100273814A1
